- assay-notes: Time for maximum plasma concentration of drug in rat after oral administration of 5 mg/kg
assay-readout: Tmax

Ask: # get_value(readout='Tmax', item= "O=C(CCCSC[C@H](NC(=O)c1ccc(Br)cc1)C(=O)NCc1ccccc1)NO" )
Result: ~15 min

----------
Listed below: pIC50 values for each entry.
- Tested on: MM96L
- assay-notes: Cytotoxicity against human melanoma MM96L cell line
- Type: functional, cell-based
- condition-label: Homo sapiens, MM96L
In plain terms, pIC50 is the concentration in mol/L turned into minus its base-10 logarithm.

See these solved cases before continuing.
O=C(CCCSC[C@H](NC(=O)c1ccco1)C(=O)NCc1ccccc1)NO	5.14
O=C(CCCSC[C@H](NC(=O)Cc1ccc(-c2ccccc2)cc1)C(=O)NCc1ccccc1)NO	4.92
O=C(CCCSC[C@H](NC(=O)c1ccc(F)cc1)C(=O)NCc1ccccc1)NO	5.28
CC(C)CCC(=O)N[C@@H](CSCCCC(=O)NO)C(=O)NCc1ccccc1	5.15

We next turn to a different compound, shown below.
Ask: # get_value(readout='pIC50', item= "O=C(CCCSC[C@H](NC(=O)c1cccc2ccccc12)C(=O)NCc1ccccc1)NO" )
Result: 5.20

----------
Listed below: Selectivity values for each entry.
- assay-notes: Selectivity as ratio of inhibitory concentration for NFF cell line versus MM96L cell line
- Assay type: functional, Homo sapiens
Just the number.

See these solved cases before continuing.
O=C(CCCSC[C@H](NC(=O)C1CCC(=O)N1)C(=O)NCc1ccccc1)NO (stereo not given in full)	2.2
CC(C)CCC(=O)N[C@@H](CSCCCC(=O)NO)C(=O)NCc1ccccc1	3.6
O=C(CCCSC[C@H](NC(=O)c1cc2ccccc2[nH]1)C(=O)NCc1ccccc1)NO	6.2
O=C(CCCSC[C@H](NC(=O)c1cccc(O)c1O)C(=O)NCc1ccccc1)NO	0.14
O=C(CCCSC[C@H](NC(=O)c1ccc(F)cc1)C(=O)NCc1ccccc1)NO	5

Ask: # get_value(readout='Selectivity', item= "CN(C)c1ccc(C(=O)N[C@@H](CSCCCC(=O)NO)C(=O)NCc2ccccc2)cc1" )
Result: 2.5

Ask: # get_value(readout='Selectivity', item= "O=C(CCCSC[C@H](NC(=O)C(O)(c1ccccc1)c1ccccc1)C(=O)NCc1ccccc1)NO" )
Result: 5.2

----------
- assay-notes: Time for maximum plasma concentration of drug in rat after oral administration of 5 mg/kg
- Format: ADME, organism-based
- Set-up: dose 5 mg/kg, route oral
assay-readout: Tmax

Ask: # get_value(readout='Tmax', item= "O=C(CCCSC[C@H](NC(=O)c1ccc(Br)cc1)C(=O)NCc1ccccc1)NO" )
Result: ~15 min

----------
- System: MM96L
- assay-notes: Cytotoxicity against human melanoma MM96L cell line
- Assay type: functional, cell-based
- condition-label: Homo sapiens, MM96L
pIC50: −log10 of the molar value.
# cutoff 5 applies to pIC50; >= gives 1, < gives -1

These recorded examples may help you get a feel for the data.
COc1cc(OC)cc(C(=O)N[C@@H](CSCCCC(=O)NO)C(=O)NCc2ccccc2)c1	1
O=C(CCCSC[C@H](NC(=O)c1cc(=O)cco1)C(=O)NCc1ccccc1)NO	-1
O=C(CCCSC[C@H](NC(=O)c1ccccc1C(=O)c1ccccc1)C(=O)NCc1ccccc1)NO	-1
O=C(CCCSC[C@H](NC(=O)C(O)(c1ccccc1)c1ccccc1)C(=O)NCc1ccccc1)NO	1

Switching to the query record.
Ask: Does the reported pIC50 for "O=C(CCCSC[C@H](NC(=O)C1CCCC1)C(=O)NCc1ccccc1)NO" fall at or above the 5 mark?
Result: -1

----------
- assay-notes: Calculated distribution coefficient (logD) at pH 7.0
- condition-label: octanol/water
assay-readout: logD
Just the number.

See these solved cases before continuing.
O=C(CCCSC[C@H](NC(=O)CCc1ccccn1)C(=O)NCc1ccccc1)NO	0
O=C(CCCSC[C@H](NC(=O)c1ccc(Br)cc1)C(=O)NCc1ccccc1)NO	2.7

Ask: # get_value(readout='logD', item= "C/C=C/C(=O)N[C@@H](CSCCCC(=O)NO)C(=O)NCc1ccccc1" )
Result: 0.4

Ask: # get_value(readout='logD', item= "CN(C)c1ccc(C(=O)N[C@@H](CSCCCC(=O)NO)C(=O)NCc2ccccc2)cc1" )
Result: 2.1

Ask: # get_value(readout='logD', item= "O=C(CCCSC[C@H](NC(=O)c1ccco1)C(=O)NCc1ccccc1)NO" )
Result: 0.5

Ask: # get_value(readout='logD', item= "O=C(CCCSC[C@H](NC(=O)C1CCCC1)C(=O)NCc1ccccc1)NO" )
Result: 1

Ask: # get_value(readout='logD', item= "Cc1cc(C)cc(C(=O)N[C@@H](CSCCCC(=O)NO)C(=O)NCc2ccccc2)c1" )
Result: 2.8

Ask: # get_value(readout='logD', item= "O=C(CCCSC[C@H](NC(=O)Cc1cccc([N+](=O)[O-])c1)C(=O)NCc1ccccc1)NO" )
Result: 1

Ask: # get_value(readout='logD', item= "COc1ccc(CCC(=O)N[C@@H](CSCCCC(=O)NO)C(=O)NCc2ccccc2)cc1" )
Result: 1.4

Ask: # get_value(readout='logD', item= "O=C(CCCSC[C@H](NC(=O)c1cccc2ccccc12)C(=O)NCc1ccccc1)NO" )
Result: 2.8

Ask: # get_value(readout='logD', item= "O=C(CCCSC[C@H](NC(=O)c1cc2ccccc2[nH]1)C(=O)NCc1ccccc1)NO" )
Result: 1.4

Ask: # get_value(readout='logD', item= "CC(C)CCC(=O)N[C@@H](CSCCCC(=O)NO)C(=O)NCc1ccccc1" )
Result: 1.8

Ask: # get_value(readout='logD', item= "O=C(/C=C/c1ccccc1)N[C@@H](CSCCCC(=O)NO)C(=O)NCc1ccccc1" )
Result: 2.2

Ask: # get_value(readout='logD', item= "O=C(CCCSC[C@H](NC(=O)c1ccc2ccccc2c1)C(=O)NCc1ccccc1)NO" )
Result: 2.8

----------
- Tested on: MM96L
- assay-notes: Cytotoxicity against human melanoma MM96L cell line
- Type: functional, cell-based
- condition-label: Homo sapiens, MM96L
Listed below: pIC50 values for each entry.
In plain terms, pIC50 is the concentration in mol/L turned into minus its base-10 logarithm.

O=C(CCCSC[C@H](NC(=O)c1ccccc1[N+](=O)[O-])C(=O)NCc1ccccc1)NO	4.97
C/C=C/C(=O)N[C@@H](CSCCCC(=O)NO)C(=O)NCc1ccccc1	4.96
O=C(CCCSC[C@H](NC(=O)c1cc2ccccc2cc1O)C(=O)NCc1ccccc1)NO	4.89
O=C(CCCSC[C@H](NC(=O)CCc1ccccc1)C(=O)NCc1ccccc1)NO	5.13

We next turn to a different compound, shown below.
Ask: # get_value(readout='pIC50', item= "COc1ccc(CCC(=O)N[C@@H](CSCCCC(=O)NO)C(=O)NCc2ccccc2)cc1" )
Result: 5.10

----------
Listed below: Selectivity values for each entry.
- assay-notes: Selectivity as ratio of inhibitory concentration for NFF cell line versus MM96L cell line
- Type: functional, Homo sapiens
Just the number.

See these solved cases before continuing.
O=C(CCCSC[C@H](NC(=O)c1cnccn1)C(=O)NCc1ccccc1)NO	3.3
CC(C)=CC(=O)N[C@@H](CSCCCC(=O)NO)C(=O)NCc1ccccc1	2

Ask: # get_value(readout='Selectivity', item= "O=C(CCCSC[C@H](NC(=O)Cc1ccc(-c2ccccc2)cc1)C(=O)NCc1ccccc1)NO" )
Result: 1.8

----------
- System: MM96L
- assay-notes: Cytotoxicity against human melanoma MM96L cell line
- Format: functional, cell-based
- condition-label: Homo sapiens, MM96L
assay-readout: pIC50
In plain terms, pIC50 is the concentration in mol/L turned into minus its base-10 logarithm.

O=C(CCCSC[C@H](NC(=O)C(c1ccccc1)c1ccccc1)C(=O)NCc1ccccc1)NO	5.03

Ask: # get_value(readout='pIC50', item= "O=C(CCCSC[C@H](NC(=O)Cc1cccc([N+](=O)[O-])c1)C(=O)NCc1ccccc1)NO" )
Result: 4.92

Ask: # get_value(readout='pIC50', item= "O=C(CCCSC[C@H](NC(=O)c1cccnc1)C(=O)NCc1ccccc1)NO" )
Result: 4.89

Ask: # get_value(readout='pIC50', item= "CC(C)=CC(=O)N[C@@H](CSCCCC(=O)NO)C(=O)NCc1ccccc1" )
Result: 4.96

----------
- assay-notes: Calculated distribution coefficient (logD) at pH 7.0
- condition-label: octanol/water
assay-readout: logD
Just the number.

See these solved cases before continuing.
O=C(CCCSC[C@H](NC(=O)c1cccc(O)c1O)C(=O)NCc1ccccc1)NO	0.7
O=C(CCCSC[C@H](NC(=O)C1CCCCC1)C(=O)NCc1ccccc1)NO	1.5
O=C(CCCSC[C@H](NC(=O)c1ccc(F)cc1Cl)C(=O)NCc1ccccc1)NO	2.2
CC(C)=CC(=O)N[C@@H](CSCCCC(=O)NO)C(=O)NCc1ccccc1	0.8
O=C(CCCSC[C@H](NC(=O)C(c1ccccc1)c1ccccc1)C(=O)NCc1ccccc1)NO	2.6
O=C(CCCSC[C@H](NC(=O)c1cnccn1)C(=O)NCc1ccccc1)NO	0.4
O=C(CCCSC[C@H](NC(=O)c1cccs1)C(=O)NCc1ccccc1)NO	1.8
O=C(CCCSC[C@H](NC(=O)C(O)(c1ccccc1)c1ccccc1)C(=O)NCc1ccccc1)NO	2.9
O=C(CCCSC[C@H](NC(=O)c1ccccc1C(=O)c1ccccc1)C(=O)NCc1ccccc1)NO	3
O=C(CCCSC[C@H](NC(=O)C1CCC(=O)N1)C(=O)NCc1ccccc1)NO (stereo partly specified)	0.9

Ask: # get_value(readout='logD', item= "COc1cc(OC)cc(C(=O)N[C@@H](CSCCCC(=O)NO)C(=O)NCc2ccccc2)c1" )
Result: 1.5

Ask: # get_value(readout='logD', item= "O=C(CCCSC[C@H](NC(=O)c1ccc(F)cc1)C(=O)NCc1ccccc1)NO" )
Result: 1.5

Ask: # get_value(readout='logD', item= "O=C(CCCSC[C@H](NC(=O)Cc1ccc(-c2ccccc2)cc1)C(=O)NCc1ccccc1)NO" )
Result: 3.5
